Measured values drawn from patent US9758492B2 for this set.

Item-by-item account of IC50
Target: IDO (Homo sapiens, UniProt P14902)
Sequence (P14902 whole entry): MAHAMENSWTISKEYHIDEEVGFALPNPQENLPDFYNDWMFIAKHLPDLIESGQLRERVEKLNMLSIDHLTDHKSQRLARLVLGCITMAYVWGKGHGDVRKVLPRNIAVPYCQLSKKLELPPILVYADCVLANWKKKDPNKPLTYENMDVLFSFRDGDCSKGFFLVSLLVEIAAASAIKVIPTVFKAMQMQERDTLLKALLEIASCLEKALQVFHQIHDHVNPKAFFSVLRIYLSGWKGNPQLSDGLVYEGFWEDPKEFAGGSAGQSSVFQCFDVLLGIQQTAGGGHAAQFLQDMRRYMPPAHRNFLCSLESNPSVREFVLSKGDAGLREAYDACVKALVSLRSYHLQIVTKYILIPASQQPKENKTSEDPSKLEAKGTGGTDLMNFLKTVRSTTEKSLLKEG
Test: LLE_IDO_ABS_DR (IDO assay)
READOUT LABEL: IC50

{"SMILES NOTATION": "CCCN(c1ccc(-c2ccccc2C(=O)O)cc1NC(=O)Nc1ccc(C)cc1)C1CCCC1", "READOUT LABEL": "IC50", "ASSAY RESULT": "10 nM"}
{"SMILES NOTATION": "CC(C)CN(c1ccc(-c2ccccc2-c2nnn[nH]2)cc1NC(=O)Nc1ccccc1C(F)(F)F)C1CCCCC1", "READOUT LABEL": "IC50", "ASSAY RESULT": "240 nM"}
{"SMILES NOTATION": "O=C(Nc1ccc(F)cc1F)Nc1cc(-c2ccccc2-c2nnn[nH]2)ccc1N(CCC(F)(F)F)Cc1ccc(OC(F)(F)F)cc1", "READOUT LABEL": "IC50", "ASSAY RESULT": "0.4 nM"}
{"SMILES NOTATION": "CC(C)CN(c1ccc(-c2ccccc2C(=O)O)cc1NC(=O)Nc1ccccc1C(F)(F)F)C1CCCCC1", "READOUT LABEL": "IC50", "ASSAY RESULT": "1270 nM"}
{"SMILES NOTATION": "Cc1ccc(NC(=O)Nc2cc(-c3c(C(=O)O)cccc3N(C)C)ccc2N(CC(C)C)CC(C)C)cc1", "READOUT LABEL": "IC50", "ASSAY RESULT": "10 nM"}
{"SMILES NOTATION": "Cc1ccc(NC(=O)Nc2cc(-c3cc(F)ccc3C(=O)O)ccc2N(CCC(F)(F)F)Cc2ccccc2)cc1", "READOUT LABEL": "IC50", "ASSAY RESULT": "350 nM"}
{"SMILES NOTATION": "O=C(Nc1cc(-c2ccccc2-c2nnn[nH]2)ccc1N(CCC(F)(F)F)Cc1ccccn1)Nc1ccccc1C(F)(F)F", "READOUT LABEL": "IC50", "ASSAY RESULT": "820 nM"}
{"SMILES NOTATION": "CC(C)CN(CC(C)C)c1ccc(-c2ccccc2-c2nnn[nH]2)cc1NC(=O)Nc1ccc(F)c(C(F)(F)F)c1", "READOUT LABEL": "IC50", "ASSAY RESULT": "1010 nM"}
{"SMILES NOTATION": "Cc1cc(NC(=O)Nc2cc(-c3ccccc3-c3nnn[nH]3)ccc2N2CCCc3ccccc32)on1", "READOUT LABEL": "IC50", "ASSAY RESULT": "5010 nM"}
{"SMILES NOTATION": "Cc1ccc(NC(=O)Nc2cc(-c3ccccc3-c3nnn[nH]3)ccc2N(CCC(F)(F)F)Cc2ccc(F)cc2C(F)(F)F)cc1", "READOUT LABEL": "IC50", "ASSAY RESULT": "5.01 nM"}
{"SMILES NOTATION": "COc1ccc(-c2ccc(N(C)C3CCCCCC3)c(NC(=O)Nc3ccc(C)cc3)c2)cc1C(=O)O", "READOUT LABEL": "IC50", "ASSAY RESULT": "1920 nM"}
{"SMILES NOTATION": "CCN(c1ccc(-c2ccccc2-c2nnn[nH]2)cc1NC(=O)Nc1ccc(C)cc1)C1CCCCC1", "READOUT LABEL": "IC50", "ASSAY RESULT": "0.835 nM"}
{"SMILES NOTATION": "O=C(Nc1cc(-c2ccccc2-c2nnn[nH]2)ccc1N(CCC(F)(F)F)Cc1ccc(OC(F)(F)F)cc1)Nc1ccccc1C(F)(F)F", "READOUT LABEL": "IC50", "ASSAY RESULT": "170 nM"}
{"SMILES NOTATION": "Cc1ccc(NC(=O)Nc2cc(-c3cc(F)ccc3-c3nnn[nH]3)ccc2N(CC(C)C)CC(C)C)cc1", "READOUT LABEL": "IC50", "ASSAY RESULT": "6.12 nM"}
{"SMILES NOTATION": "CC(C)CN(CC(C)C)c1ccc(-c2ccc(F)cc2C(=O)O)cc1NC(=O)Nc1ccccc1Cl", "READOUT LABEL": "IC50", "ASSAY RESULT": "560 nM"}
{"SMILES NOTATION": "C#CCN(CC(C)C)c1ccc(-c2ccccc2-c2nnn[nH]2)cc1NC(=O)Nc1ccc(C)cc1", "READOUT LABEL": "IC50", "ASSAY RESULT": "10 nM"}
{"SMILES NOTATION": "Cc1ccc(NC(=O)Nc2cc(-c3ccccc3-c3nnn[nH]3)ccc2N(CC(C)C)CC(C)C)cc1F", "READOUT LABEL": "IC50", "ASSAY RESULT": "4.47 nM"}
{"SMILES NOTATION": "Cc1ccc(NC(=O)Nc2cc(-c3ccccc3C(=O)O)ccc2N(CCC2CC2)CC(C)C)cc1", "READOUT LABEL": "IC50", "ASSAY RESULT": "50 nM"}
{"SMILES NOTATION": "CCCN(Cc1ccccc1)c1ccc(-c2cc(F)ccc2C(=O)O)cc1NC(=O)Nc1ccc(C)cc1", "READOUT LABEL": "IC50", "ASSAY RESULT": "30 nM"}
{"SMILES NOTATION": "CCCN(c1ccc(-c2cc(F)ccc2C(=O)O)cc1NC(=O)Nc1ccc(C)cc1)C1CCCCC1", "READOUT LABEL": "IC50", "ASSAY RESULT": "3.68 nM"}
